The values you see were collected from ChEMBL document CHEMBL6103579.

System: N2a
Procedure Text: Antiproliferative activity against mouse N2a cells assessed as inhibition of cell growth incubated for 60 hrs by CCK-8 method
Type: functional, cell-based
Attribute Measured: pIC50
Lab note — pIC50 values are minus log10 of concentrations in M.

What value of measured pIC50 is listed for N#C[Se]CCCOc1ccc2cc(C(=O)N3N=C(c4ccc(F)cc4)CC3c3ccc(F)cc3)c(=O)oc2c1 (stereo unspecified) ?
4.75
